EXPERIMENT_NOTES: Toxicity liver stage against HepG2, at 10uM
Type: cell-based
Parameters: test concentration 10 uM, cell line HepG2-A16-CD81EGFP
EXPERIMENTAL_CONDITIONS: human, HepG2-A16-CD81EGFP cells; read-out: INHIBITION
Listed next: entries and their corresponding cytotoxicity at 10 µM.
Report the figure in % without appending any unit label.

Recorded results for 5 compounds are shown here.
# COMPOUND, UNIT_SYMBOL, RECORDED_RESULT
data = [
    ("CC(=O)N1CC(C)CN(C(=O)c2cnccn2)c2ccccc21 (centres undefined)", "%", 3.82),
    ("Cc1nc(CN(C)C2CCN(CCn3cc(C#N)cn3)C2)no1 (centres undefined)", "%", -3.82),
    ("CC(Cn1cc(Br)cn1)C(=O)Nc1ccc(Br)cn1 (centres undefined)", "%", 73.3),
    ("CC(C)NC(=O)[C@@H]1C[C@H](N)CN1C(=O)c1cc2c([nH]c1=O)CCCC2", "%", 10.5),
    ("CC(C)c1nn(C)c(N(C)C)c1CNC1CCN(C2CC2)CC1", "%", 5.6),
]

Param item = CC(Cn1cccn1)NCc1ccc(OCc2ccncc2)cc1 (centres undefined) ; retrieve measured cytotoxicity at 10 µM. -29.9

* * *

EXPERIMENT_NOTES: Toxicity liver stage against HepG2, at 10uM
Format: cell-based
Set-up: test concentration 10 uM, cell line HepG2-A16-CD81EGFP
EXPERIMENTAL_CONDITIONS: human, HepG2-A16-CD81EGFP cells; read-out: INHIBITION
In this section, each of the compounds is paired with its reported cytotoxicity at 10 µM.
Dear colleague, please return just the value in %, with no unit written.

# count of solved cases: 3
# COMPOUND, UNIT_SYMBOL, cytotoxicity at 10 µM
data = [
    ("COc1ccc2nnc(CCCC(=O)NCCc3ccncc3)n2n1", "%", -10),
    ("COc1ccc(C2CCCCCN2CCCNS(C)(=O)=O)cc1 (stereo not drawn)", "%", -6.07),
    ("Cc1cccc(CS(=O)(=O)CC(=O)NCCCOC(C)C)c1", "%", -5.15),
]

If you can, please state the reported cytotoxicity at 10 µM value of `Fc1cccnc1O[C@@H]1CN(Cc2ccccn2)[C@@H]2CCCO[C@@H]21` . 1.71

Quick one: cytotoxicity at 10 µM of CC(CO)Nc1ccc(-c2nc(Cc3ccc(F)cc3)no2)cn1 (stereo not drawn) ? -11.9

Suppose we examine the compound CCC1CN(C(=O)Nc2cnc3c(cnn3C(C)C)c2)CCO1 (stereo not drawn) ; what cytotoxicity at 10 µM value has been reported? -9.46

Would you kindly share the measured cytotoxicity at 10 µM for `O=C(CCc1cn[nH]c1)N1C[C@@H](CN2CCOCC2)C[C@H](CO)C1` ? 3.13

Which cytotoxicity at 10 µM reading was recorded for the compound Cc1cc(N)nc(C2(C)CCCN2C(=O)Cc2ccc(F)cc2)n1 (stereo not drawn) ? -27.5

Which cytotoxicity at 10 µM is listed for Cc1noc(C2(C)CCCN(C(=O)C(C)C)C2)n1 (stereo not drawn) ? -3.97

Would you kindly share the measured cytotoxicity at 10 µM for CCc1csc(C2CCCN(C(=O)c3cnc[nH]3)C2)n1 (stereo not drawn) ? 1.78
